Reported values of kon for individual entries
Target entity: T1, Cyno CD33 ECD-HSA (cynomolgus monkey)
T1 construct: Cyno CD33 ECD fused to HSA and a six-histidine tag; also called C33W1
Assay explanation: ProteOn SPR, mAb captured on anti-human Fc, antigen as analyte

Binder	kon
C33B916 (antibody, V domains shown, OMNIMouse-derived anti-CD33 mAb; same V regions as C33B908; also called C33H256/C33L122; C33F554) VH: QVQLVESGGGVVQPGRSLRLSCATSGFTFSNYGMHWVRQAPGKGLEWVAVIWYVGSHKYYADSVKGRFTISRDNSKNTLYLQMNSLRAEDTAVYYCARDGSLCFDYWGQGTLVTVSS VL: SYELTQPPSVSVSPGQTANISCSGVTLGYNYAYWYQQKPGQSPILVISQDTQRPSGIPERFSGSNSGNTATLTISGTQAMDEAAYYCQAWDITTVLFGGGTKLTVL	473000 M⁻¹ s⁻¹

I'd like to know its kon. The binder in question is C33B915 (antibody, V domains shown, OMNIMouse-derived anti-CD33 mAb; same V regions as C33B907; also called C33H255/C33L121; C33F553) VH: EVQLVESGGGLVQPGRSLRLSCAASGFTFDDYAMHWVRQVPGEGLEWVSGISWNGGDMVYADSVKGRFTISRDNAKNSLYLQMNSLRPEDTALYYCVKDMPYFDFLTGSDYYYYGMDVWGQGTTVTVSS VL: SYELTQPPSVSVSPGQTASITCSGDNLGNEHVCWYHQKPGQSPVLVIYQNNKRPSGIPERFSGSNSGNTATLSISGTQATDEADYYCQAWDSTTAVFGGGTKLTVL
3.81e+06 M⁻¹ s⁻¹

Field entry: C33B912 (antibody, V domains shown, OMNIMouse-derived anti-CD33 mAb; also called C33H252/C33L118; C33F550) VH: EVQLVESGGGLVQPGRSLRLSCAASGFTFDDYAMHWVRQAPGKGLEWVSGIGWSGGSIVYADSVKGRFTISRDNAKNSLYLQMNSLRAEDTALYYCAKDSPYGDFFDYWGQGTLVTVSS VL: DIVMTQSPDSLAVSLGERATINCKSSQTVFYSSNNKNYLAWYQQKPGQPPKLLISWASTRKSGVPDRFSGSGSGTDFTLTVSSLQAEDVAVYYCQHYYSTPYTFGQGTKLEIK
1.5e+06 M⁻¹ s⁻¹

Field entry: C33B914 (antibody, V domains shown, OMNIMouse-derived anti-CD33 mAb; same V regions as C33B906; also called C33H254/C33L120; C33F552) VH: QVQLVESGGGVVQPGRSLRLSCAASGFTFSYYGMHWVRQAPDKGLEWVAVIWFDGNNKYYADSVKGRFTISRDNSKNTLYLQMNSLRAEDTAVYYCARDRELLFDYWGQGTLVTVSS VL: SYELTQPPSVSVSPGQTASITCSGDELGDMYACWYQQKPGQSPLVVIYQDSKRPSGIPERFSGSNSGNTATLTISGTQAMDEAAYYCQTWDTRIAVFGGGTNLTVL
529000 M⁻¹ s⁻¹
